# Test system: 786-0 renal
# PROTOCOL TEXT: NCI-60 one-dose screen, 48 h (100 = growth as untreated, 0 = no growth, -100 = all killed)
# MEASUREMENT CONDITIONS: 10 µM unless noted
Compounds without any hit were thinned out: in the full panel of roughly 83,000, 20% have a hit.

| COMPOUND | SYSTEM UNDER TEST | growth, % |
| --- | --- | --- |
| CCNC(=O)c1[nH]cc(-c2ccccc2)c1-c1cc(OC)c2c(c1OC)OCO2 | 786-0 renal | 101 |
| CN(CCn1sc(=O)n(Cc2ccccc2)c1=O)Cc1ccc2c(Cl)cc(Cl)c(O)c2n1 | 786-0 renal | 37.6 |
| CC(C)c1ccc(NC(=O)Nc2ccc(NC(=O)CCCC(=O)NOCc3ccccc3)cc2)cc1 | 786-0 renal | 101 |
| N#Cc1c(NC(=O)c2ccccc2)sc2c1CCC(=O)C2 | 786-0 renal | 25.9 |
| Cc1ccc(C(C(N)=O)C(C(N)=O)c2ccccc2)cc1 (stereo not given) | 786-0 renal | 102 |

* * *

# Test system: OVCAR-3 ovarian
# PROTOCOL TEXT: NCI-60 one-dose screen, 48 h
# MEASUREMENT CONDITIONS: 10 µM unless noted
This is part of a sample that, as a whole, favours compounds with a hit. Of some 83,000 tested, about 20% had one in any assay. Active and inactive are the calls of the source. Rule for the calls: active = growth percent below 10; inactive = the rest.
Labels: true (1) = active, false (0) = inactive

| MOLECULE | SYSTEM UNDER TEST | CAT |
| --- | --- | --- |
| CCOC(=O)c1cnc2ccccc2c1Cl | OVCAR-3 ovarian | false (0) |
| CN([O-])c1nc(N(C)[O-])nc(N2CCOCC2)n1.CN([O-])c1nc(N(C)[OH2+])nc(N2CCOCC2)n1.[Fe+3] | OVCAR-3 ovarian | false (0) |
| O=C(CCCCCCN1CC(=O)N2[C@H](c3cc(Br)cs3)c3[nH]c4ccccc4c3C[C@H]2C1=O)NO | OVCAR-3 ovarian | false (0) |
| CCCCCC(=O)OCC(=O)O[C@@H]1C[C@]2(C(C)C)O[C@@]1(C)[C@@H]1CC[C@@H](C)[C@H]1[C@@H]2OC(=O)/C=C/c1ccccc1 | OVCAR-3 ovarian | false (0) |
| C=C(C)[C@@H]1CC[C@]2(C(=O)NCCNCCN)CC[C@]3(C)[C@H](CC[C@@H]4[C@@]5(C)C/C(=C/c6ccncc6)C(=O)C(C)(C)[C@@H]5CC[C@]43C)[C@@H]12 | OVCAR-3 ovarian | false (0) |
| COc1ccc(C(c2cc(OC)c(OC)c(OC)c2)N2CCN(c3ccccc3)CC2)cc1 (centres undefined) | OVCAR-3 ovarian | false (0) |
| O=C(Cn1cc(CN2C(=O)c3ccccc3S2(=O)=O)nn1)Nc1nc2ccccc2s1 | OVCAR-3 ovarian | false (0) |
| CC(O)c1cnc(/C=C2\SC(=S)N(Cc3ccccc3)C2=O)s1 (centres undefined) | OVCAR-3 ovarian | false (0) |
| C#CCOc1cccc(Nc2ncnc3ccc(NC(=O)CCl)cc23)c1 | OVCAR-3 ovarian | true (1) |

* * *

# Test system: M14 melanoma
# PROTOCOL TEXT: NCI-60 one-dose screen, 48 h (100 = growth as untreated, 0 = no growth, -100 = all killed)
# MEASUREMENT CONDITIONS: 10 µM unless noted
This is part of a sample that, as a whole, favours compounds with a hit. Of some 83,000 tested, about 20% had one in any assay.

| COMPOUND | SYSTEM UNDER TEST | growth / % |
| --- | --- | --- |
| O=C(NCCCCNC(=O)OCc1ccc2c(Cl)cc(Cl)c(O)c2n1)OCc1ccc2c(Cl)cc(Cl)c(O)c2n1 | M14 melanoma | 12.4 |
| O=c1oc2c(cnc3ccccc32)cc1-c1ccsc1 | M14 melanoma | 101 |
| COc1ccc(C(c2cc(OC)c(OC)c(OC)c2)N2CCN(c3ccccc3)CC2)cc1 (stereo not given) | M14 melanoma | 76.3 |
| Fc1ccc(-c2nn(-c3ccccc3)cc2-c2nc3ccccc3o2)cc1 | M14 melanoma | 48.2 |
| CCN(CC)CCNC(=O)c1cn2ncnc(Oc3ccc(NC(=O)Nc4ccc(Cl)c(C(F)(F)F)c4)c(F)c3)c2c1C | M14 melanoma | -83.2 |
| Cc1nc2sc(C(=O)Nc3ccccc3)c(N)c2cc1C(=O)c1ccccc1 | M14 melanoma | 39.8 |
| CCOc1nc(-c2ccccc2)cc2c(O)c(C(=O)NN)[nH]c(=O)c12 | M14 melanoma | 98.8 |
| COc1ccc(N2CCC(=O)NC2=S)cc1 | M14 melanoma | 98.7 |
| CCCNC(=O)Oc1ccc(/C(=C(/C)Cc2ccc(OC)cc2)c2ccc(OCCCN(C)C)cc2)cc1 | M14 melanoma | 71.8 |
| COc1cc(CNS(=O)(=O)c2ccc(C)cc2)ccc1OCc1cn(-c2ccc(F)cc2)nn1 | M14 melanoma | 97.1 |

* * *

List of growth values.
# Tested on: MCF7 breast
# PROTOCOL TEXT: NCI-60 one-dose screen, 48 h (100 = growth as untreated, 0 = no growth, -100 = all killed)
# MEASUREMENT CONDITIONS: 10 µM unless noted
This is part of a sample that, as a whole, favours compounds with a hit. Of some 83,000 tested, about 20% had one in any assay.
MEASUREMENT LABEL: growth (%)

| MOLECULE | UNIT TEXT | RESULT VALUE |
| --- | --- | --- |
| CC(C)NC1CCC(Nc2ccnc3cc(Cl)ccc23)CC1 (configuration not stated) | % | 93.3 |
| COc1cc(NC(C)CCCNC(C)C)c2ncccc2c1OC (configuration not stated) | % | 93.5 |
| CC[C@]12C=CCN3CC[C@@]4(c5cc(NC(=O)CCC(=O)OCc6cn(Cc7ccc(F)cc7)nn6)c(OC)cc5N(C)[C@H]4[C@@](O)(C(=O)OC)[C@@H]1OC(C)=O)[C@@H]32 | % | 96.4 |
| CC1=C(C(=O)OC(C)C)C(c2ccc3c(c2)OCO3)NC(=S)N1 (configuration not stated) | % | 98.7 |
| CC(C)n1cnc2c(=S)nc[nH]c21 | % | 106 |
| O=S(=O)(NCCNc1cc(-c2c(-c3cccc(O)c3)nc3sccn23)ccn1)c1ccc(C(F)(F)F)cc1 | % | 16.2 |
| Cc1ccc(S(=O)(=O)N2CCCC2CO)cc1 (configuration not stated) | % | 91.3 |
| O=CC1(C2(C=O)c3ccccc3-c3ccccc32)c2ccccc2-c2ccccc21 | % | -52.4 |
| COc1ccc(-c2nnc3n(C)c(=O)c4ccccc4n23)cc1N | % | 18.6 |
| O=S(=O)(NCCCNc1nccc(-c2c(-c3ccc(F)c(O)c3)nc3occn23)n1)c1ccccc1 | % | 77.3 |
| N#CC1=C(c2ccc(Cl)cc2)Nc2c(c(-c3ccc(Cl)cc3)nn2-c2ccccc2)C12C(=O)Nc1ccc(Cl)cc12 (configuration not stated) | % | 33.2 |
| C#Cc1cccc(Nc2ncnc3ccc(-c4cncc(NS(C)(=O)=O)c4)cc23)c1 | % | 10.9 |
| COc1ccc2c(O)c(/C=C3\N=Nc4ncccc43)oc2c1C[C@H]1CCNC[C@H]1F | % | 2.59 |
| COc1cc(-c2nc(SCCC(C)C)nc(Nc3ccccc3Cl)c2C#N)cc(OC)c1OC | % | 85.7 |
| Cc1ccc(-c2nc(/C=C3/C(=O)Nc4ccccc43)c3ccccn23)cc1 | % | 37.2 |
| O=C1CC(N2C(=O)/C(=C/C(Cl)=C\c3ccc([N+](=O)[O-])cc3)SC2=S)C(=O)N1c1ccc(Cl)cc1 (configuration not stated) | % | 18.1 |
| O=C1c2cccc3cccc(c23)C(=O)N1N1C(=O)c2cccc3c(N4CCOCC4)ccc(c23)C1=O | % | 94.9 |
| CC1(c2ccccc2O)NN=C(/N=C/c2cccc([N+](=O)[O-])c2)N1C(Cc1c[nH]c2ccccc12)C(=O)O (configuration not stated) | % | 77.3 |
| O=C(CN1C(=O)CCC1=O)Nc1ncc(Cc2ccc(F)cc2)s1 | % | 92.4 |
| CC(C)CCNC(=O)Cn1cccc(NC(=O)OCc2ccccc2)c1=O | % | 95.1 |
| COc1ccc(C2c3sc4c(F)cccc4c3Oc3nc[nH]c(=O)c32)cc1 (configuration not stated) | % | 45.7 |
| O=C(NCc1ccccc1)Nc1ccccc1CNc1nc(Nc2ccc(OCCN3CCCC3)cc2)ncc1Cl | % | 65.9 |
| O=C(Nc1ccc(NC(=O)c2cc(=O)[nH]c3ccccc23)cc1)Nc1cccc(C(F)(F)F)c1 | % | 70.7 |
| Fc1ccc(Nc2nc3nonc3nc2Nc2ccc(I)cc2)cc1 | % | 1.98 |
| CCCCC(=O)c1ccco1 | % | 90.9 |
| Nc1nc2c([nH]1)c1[nH]c3ccccc3c1c1[nH]c3ccccc3c21 | % | 13.6 |
| CCc1n(Cc2ccc3ccccc3c2)cc[n+]1Cc1ccc2ccccc2c1 | % | 2.44 |
| CC(=O)N(N=Nc1ccccc1)c1cccc2ccccc12 | % | 76.8 |
| COC1C[C@H](O[C@@H]2C[C@H](O[C@@H]3C[C@H](O[C@@H]4C(=O)c5c(cc6cc(O[C@H]7C[C@@H](O[C@H]8C[C@@H](O)[C@H](O)C(C)O8)[C@H](O)C(C)O7)c(C)c(O)c6c5O)C[C@H]4C(OC)C(=O)[C@@H](O)[C@@H](C)O)OC(C)[C@H]3O)OC(C)[C@@H]2O)OC(C)[C@@H]1O (some centres not stated) | % | 4.52 |
| CC(=O)Nc1nc2ccc(NS(=O)(=O)c3cccc4c(N(C)C)cccc34)cc2[nH]1 | % | 22.4 |
| CC1=C(CCC(C)N(C)Cc2ccc(OCCCN3CCCC3)cc2)C(C)(C)CCC1 (configuration not stated) | % | -33.3 |
| COCCn1cc(-c2nc(-c3cc4cccnc4n3CCOC)cs2)c2cc(OC)ccc21 | % | 5.4 |
| COC(=O)[C@]1(C)CCC[C@]2(C)[C@H]3C[C@H]4C(C(C)C)=C[C@]3(CC[C@H]21)[C@H]1[C@@H]4[C@@H](OCCC#N)CC[C@@H]1OCCC#N | % | 9.07 |
| CCN(CC)CCOc1ccc(C(=C(C)c2ccc(Cl)cc2)c2ccc(OCCN(CC)CC)cc2)cc1 | % | -76.5 |
| S=C1CCSC(=S)N1CCCN1C(=S)CCSC1=S | % | 20.8 |
| O=C1Nc2ccccc2[C@]12CC(c1ccccc1)=NN2 | % | 29.5 |
| N#Cc1c(NC(=O)c2ccccc2)sc2c1CCC(=O)C2 | % | 4.73 |
